target: IRF5; details: ASO, KARPAS-229, 4 µM
After the bases stand the sugars from the 5' end (letter, count) and the backbone: PS all phosphorothioate, else s phosphorothioate and o phosphodiester by linkage. Methylation of C is not given here. e = 2'-O-(2-methoxyethyl) (MOE); k = constrained ethyl (cEt); d = 2'-deoxy (DNA)
Kind request: treat 9% as inclusive, so target mRNA inhibition at 9% or higher is TRUE, anything lower is FALSE.

Confirm if target mRNA inhibition reported for the sequence CCATTCTATGCCTTTT (sugars kkddddddddkekekk, PS) is 9% or above.
FALSE

Same question, CCCAATGCAACATCCA (sugars k3 d10 k3, PS) this time
TRUE

Would you mind doing CACTGACACAGGCGGA (sugars kekdddddddddeekk, PS) as well?
FALSE

GTTATCTCCGTTCCTGG (sugars kkkdddddddddkeked, PS) ?
FALSE

Lookup CCTTCTGCAGGGAGTC (sugars k3 d9 k3 e1, PS)
FALSE

Now this one: TCTGGCCCTTTTGGAA (sugars kkddddddddkekekk, PS)
FALSE

Likewise for GGTCTTTGAGGTCTGG (sugars k3 d9 k3 e1, PS) ?
TRUE

Subsequent entry: AGGAAGTGAGTCTCAA (sugars kekdddddddddeekk, PS)
TRUE

And the next one, ATGAGTCATGGGCTGA (sugars k3 d9 k3 e1, PS) ?
TRUE

Queued: GTTATCTCCGTTCCTGG (sugars kkkddddddddkekekd, PS)
FALSE

What do you get for CACATCTCCACATCAG (sugars kkdddddddddkekek, PS) ?
TRUE

Another sequence to look at: GCTGTCACATCTCCAC (sugars k3 d10 k3, PS)
TRUE

Another: GGGCACAGCGCAGGTT (sugars kdddddddddkekeke, PS)
TRUE

Okay, and ATCACCACTGTGTACC (sugars k3 d9 k3 e1, PS) ?
TRUE

* * *

target: DGAT2; conditions: ASO, HepG2, 20 µM
After the bases stand the sugars from the 5' end (letter, count) and the backbone: PS all phosphorothioate, else s phosphorothioate and o phosphodiester by linkage. Methylation of C is not given here. e = 2'-O-(2-methoxyethyl) (MOE); d = 2'-deoxy (DNA)
Please mark Met if the recorded target mRNA inhibition is equal to or greater than 60%, and Not met if it falls below.

Does the sequence CCCAGTTTCGGACCCACTGT (sugars e5 d10 e5, PS) have recorded target mRNA inhibition that is 60% or more?
Not met

Next sequence: CAGGTTGTGTGTCTTCACCA (sugars e5 d10 e5, PS)
Met

Here is the next sequence: GGAGCTCAGAGACTCAGCCG (sugars e3 d14 e3, PS)
Not met

Now consider GCTCAGAGACTCAGCCGCAC (sugars e5 d10 e5, PS) and answer again.
Not met

Do the same for TGGAGCTCAGAGACTCAGCC (sugars e5 d10 e5, PS) please
Not met

Try this sequence too: CCAGTTTCGGACCCACTGTG (sugars e5 d10 e5, PS)
Met

// next record CAGGACCCACTGGAGCACTG (sugars e5 d10 e5, PS)
Met

Repeat with AAATAACCCACAGACACCCA (sugars e5 d10 e5, PS)
Met

Follow-up item: GCCTGGACAAGTCCTGCCCA (sugars e3 d14 e3, PS)
Not met

What do you get for GCCTGGACAAGTCCTGCCCA (sugars e2 d13 e5, PS) ?
Not met
